Assay: Small Molecules that selectively kill Giardia lamblia: qHTS;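 further: parasites exposed to compound for two days anaerobically before the ATP read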
Conditions: Giardia lamblia trophozoite viability; at 7.66 µM; hits give low values
Hit rate of the full screen: of about 340,000 compounds, about 530 (0.16%) were called active. About 2% were inconclusive and are not listed. What follows is part of a selection rich in actives, with near analogues and random picks from the rest.
activity change vs -20%: less than gives met; not less than gives not met.

### Prompt In the record for `Cc1cccc(NC(=O)c2ccc([N+](=O)[O-])o2)c1` , is activity change less than -20%?
### Response met

### Prompt I wonder whether `O=C(Nc1ccc(Br)cn1)c1ccc([N+](=O)[O-])o1` has activity change below -20%. Can you tell?
### Response met

### Prompt Find out if reported activity change for Oc1ccc(Cl)cc1C1C=C(c2ccc3c(c2)OCO3)NC(c2ccc(F)c(Br)c2)N1 (stereo not given) is less than -20%
### Response met

### Prompt hey, is activity change for `CCOc1ccc(NC(=O)CSc2nnc3c(n2)[nH]c2ccc(S(=O)(=O)N4CCOCC4)cc23)cc1` lower than -20% or not?
### Response met

### Prompt # check: activity change < -20% for CC1CC(C)(C)CC2(C1)NC(=O)N(CC(=O)Nc1nccs1)C2=O (stereo not given)
### Response not met

### Prompt Strictly below -20% in activity change? Oc1ccc(Cl)cc1C1C=C(c2ccc3c(c2)OCO3)NC(c2c(F)cccc2Cl)N1 (stereo not given)
### Response met

### Prompt Dear reviewer, please state whether `O=C(Nc1cccc([N+](=O)[O-])c1)c1ccc2c(c1)OCO2` has activity change strictly beneath -20%.
### Response not met

### Prompt Determine if `COc1ccc(S(=O)(=O)Nc2cccc3cccnc23)c(N)c1` shows activity change strictly lower than -20%.
### Response not met

### Prompt Hello, is activity change of the following compound strictly smaller than -20%? O=C(O)C1CCC(CNS(=O)(=O)c2ccc(Br)cc2)CC1 (stereo not given)
### Response not met

### Prompt Strictly below -20% in activity change? `C=CCn1c(CCNC(=O)c2ccccc2F)nnc1SCC(=O)Nc1ccc(OC)cc1`
### Response not met
